# target system: 72 kDa type IV collagenase (Homo sapiens, UniProt P08253)
# Sequence (P08253 whole entry): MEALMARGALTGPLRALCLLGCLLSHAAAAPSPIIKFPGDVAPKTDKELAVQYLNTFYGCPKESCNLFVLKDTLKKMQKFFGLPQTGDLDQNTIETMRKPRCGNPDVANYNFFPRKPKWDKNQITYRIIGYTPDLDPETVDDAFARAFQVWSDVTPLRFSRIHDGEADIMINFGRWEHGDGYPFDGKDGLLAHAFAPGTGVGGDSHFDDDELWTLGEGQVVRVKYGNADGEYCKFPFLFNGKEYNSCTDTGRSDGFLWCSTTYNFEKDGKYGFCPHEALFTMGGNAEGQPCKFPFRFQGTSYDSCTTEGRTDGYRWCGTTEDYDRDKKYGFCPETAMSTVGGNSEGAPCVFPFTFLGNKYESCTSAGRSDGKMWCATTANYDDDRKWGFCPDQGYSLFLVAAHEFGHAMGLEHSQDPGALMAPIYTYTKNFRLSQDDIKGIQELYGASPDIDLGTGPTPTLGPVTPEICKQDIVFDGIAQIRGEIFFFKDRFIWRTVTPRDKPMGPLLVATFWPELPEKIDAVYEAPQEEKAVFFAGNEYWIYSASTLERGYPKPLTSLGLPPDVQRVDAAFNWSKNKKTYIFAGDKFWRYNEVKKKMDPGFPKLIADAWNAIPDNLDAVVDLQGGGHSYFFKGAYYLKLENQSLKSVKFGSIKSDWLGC
# measurement notes: Inhibition of MMP2
attribute measured: pIC50
Give bare numbers, as −log10 of the molar value.

Below: 8 compounds and their reported pIC50.
CCCNC(=O)[C@H](Cc1ccccc1)NC(=O)Cn1c(=O)c(C)nc2ccccc21	4.25
Cc1nc2ccccc2n(CC(=O)N[C@@H](Cc2ccccc2)C(=O)Nc2ccc(F)c(Cl)c2)c1=O	2.87
CCN(CC)C(=O)[C@H](Cc1ccccc1)NC(=O)Cn1c(=O)c(C)nc2ccccc21	3.98
Cc1nc2ccccc2n(CC(=O)N[C@@H](Cc2ccccc2)C(=O)Nc2ccc(F)c(F)c2)c1=O	4.62
Cc1ccccc1NC(=O)[C@H](Cc1ccccc1)NC(=O)Cn1c(=O)c(C)nc2ccccc21	4.43
Cc1nc2ccccc2n(CC(=O)N[C@@H](Cc2ccccc2)C(=O)NC(C)C)c1=O	2.03
Cc1nc2ccccc2n(CC(=O)N[C@@H](Cc2ccccc2)C(=O)Nc2ccc(Br)cc2)c1=O	2.70
Cc1nc2ccccc2n(CC(=O)N[C@@H](Cc2ccccc2)C(=O)Nc2ccccc2)c1=O	4.24

Moving on to the next compound.
Reported pIC50, compound "Cc1ccc(NC(=O)[C@H](Cc2ccccc2)NC(=O)Cn2c(=O)c(C)nc3ccccc32)cc1" : ____
4.98
